The measured values listed here are drawn from patent US9884832B2.

Exercise: state measured inhibition at 100 µM for each of the molecules provided.
Molecular target: AM2 S31 (wild-type serine at position 31 in the M2 protein), influenza virus A/Udorn/72 (Influenza A virus)
Test: cell-based
Details: Table 3; 100 uM; Xenopus oocytes, pH 5.5, -20 mV; read-out: S31 OOcyte Inhibition at 100 uM (%)

Inquiry: For the molecule shown here, c1sc(CNC23CC4CC(CC(C4)C2)C3)cc1C1CC1 [Example 48b] , give the reported inhibition at 100 µM.
Reply text: 0 to 30%

Inquiry: Another: c1cc2nc(CNC34CC5CC(CC(C5)C3)C4)sc2s1 [Example 77b]
Reply text: 0 to 30%

Inquiry: Another: O=C(CNC12CC3CC(CC(C3)C1)C2)c1cccs1 [Example 87b]
Reply text: 31 to 95%

Inquiry: Another: Clc1ccccc1-c1ccc(CNC23CC4CC(CC(C4)C2)C3)nc1 [Example 72b]
Reply text: 0 to 30%

Inquiry: Another: Brc1ccsc1CNC12CC3CC(CC(C3)C1)C2 [Example 47b]
Reply text: 31 to 95%

###

Target: AM2 S31 (wild-type serine at position 31 in the M2 protein), influenza virus A/Udorn/72 (Influenza A virus, UniProt P0DOF5)
Sequence (P0DOF5 whole entry, looked up): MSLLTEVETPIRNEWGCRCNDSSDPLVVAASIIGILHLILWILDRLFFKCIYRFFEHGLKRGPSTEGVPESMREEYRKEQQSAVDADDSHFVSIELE
Assay: cell-based
Settings: 100 uM; Xenopus oocytes; activity range class; read-out: S31 OOcyte Inhibition at 100 uM (%)
Exercise: state measured inhibition at 100 µM for each of the compounds provided.

Inquiry: For the compound shown here, COc1cc(Cl)sc1CNC12CC3CC(CC(C3)C1)C2 [Example 80a] , give the reported inhibition at 100 µM.
Reply text: 31 to 95%

Inquiry: Another: c1csc(-c2cc(CNC34CC5CC(CC(C5)C3)C4)on2)c1 [Example 149a]
Reply text: 0 to 30%

Inquiry: Another: OC12CC3CC(C1)CC(NCc1cccs1)(C3)C2 [Example 187a]
Reply text: 0 to 30%

Inquiry: Another: Cc1cc(CNC23CC4CC(CC(C4)C2)C3)no1 [Example 95a]
Reply text: 31 to 95%

Inquiry: Another: OC12CC3CC(C1)CC(NCc1cc(-c4ccccc4)on1)(C3)C2 [Example 194a]
Reply text: 0 to 30%

Inquiry: Another: c1coc(-c2cc(CNC34CC5CC(CC(C5)C3)C4)no2)c1 [Example 153a]
Reply text: 0 to 30%

Inquiry: Another: c1ccc2nc(CNC34CC5CC(CC(C5)C3)C4)ccc2c1 [Example 56a, Adamantan-1-yl-quinolin-2-ylmethyl-amine]
Reply text: 31 to 95%

Inquiry: Another: Brc1cc(CNC23CC4CC(CC(C4)C2)C3)on1 [Example 94a]
Reply text: 0 to 30%

Inquiry: Another: Oc1cc(-c2ccoc2)ccc1CNC12CC3CC(CC(C3)C1)C2 [Example 46a]
Reply text: 0 to 30%

Inquiry: Another: Cc1ccc(-c2cc(CNC34CC5CC(CC(C5)C3)C4)no2)cc1 [Example 120a]
Reply text: 0 to 30%

Inquiry: Another: c1cc(-c2ccc(CNC34CC5CC(CC(C5)C3)C4)cn2)cs1 [Example 59a]
Reply text: 0 to 30%

Inquiry: Another: Cn1cc(C(F)(F)F)c(-c2ccc(CNC34CC5CC(CC(C5)C3)C4)s2)n1 [Example 155a]
Reply text: 0 to 30%

Inquiry: Another: COc1ccc2[nH]c(CNC34CC5CC(CC(C5)C3)C4)cc2c1 [Example 182a]
Reply text: 0 to 30%

Inquiry: Another: COc1ccsc1CNC12CC3CC(CC(C3)C1)C2 [Example 74a]
Reply text: 31 to 95%

Inquiry: Another: c1ccc(Oc2ccc(CNC34CC5CC(CC(C5)C3)C4)cc2)cc1 [Example 13a, Adamantan-1-yl-(4-phenoxy-benzyl)-amine]
Reply text: 31 to 95%

Inquiry: Another: OC12CC3CC(C1)CC(NCc1ccc(Cl)s1)(C3)C2 [Example 189a]
Reply text: 0 to 30%

Inquiry: Another: COc1ccc2nc(CN(Cc3nc4ccc(OC)cc4[nH]3)C34CC5CC(CC(C5)C3)C4)[nH]c2c1 [Example 201a]
Reply text: 0 to 30%

Inquiry: Another: "Cc1ccc(CNC23CC4CC(CC(C4)C2)C3)cc1"
Reply text: 31 to 95%

Inquiry: Another: Brc1cnc(CNC23CC4CC(CC(C4)C2)C3)[nH]1 [Example 89a]
Reply text: 31 to 95%

Inquiry: Another: COc1cccc(COc2ccc(CNC34CC5CC(CC(C5)C3)C4)cc2)c1 [Example 14a]
Reply text: 0 to 30%

Inquiry: Another: CCc1ccc(CNC23CC4CC(CC(C4)C2)C3)s1 [Example 98a]
Reply text: 31 to 95%

Inquiry: Another: c1cc(-c2ccc(CNC34CC5CC(CC(C5)C3)C4)s2)[nH]n1 [Example 158a]
Reply text: 0 to 30%

Inquiry: Another: COc1ccc(-c2ccc(CNC34CC5CC(CC(C5)C3)C4)s2)cc1 [Example 113a]
Reply text: 0 to 30%

Inquiry: Another: c1cn(-c2ccc(CNC34CC5CC(CC(C5)C3)C4)s2)cn1 [Example 161a]
Reply text: 0 to 30%

Inquiry: Another: c1csc(CNC23CC4CC(CC(C4)C2)C3)c1 [Example 70a, Adamantan-1-yl-thiophen-2-ylmethyl-amine]
Reply text: 31 to 95%

Inquiry: Another: c1csc(-c2nnc(CNC34CC5CC(CC(C5)C3)C4)o2)c1 [Example 147a]
Reply text: 0 to 30%

Inquiry: Another: "Brc1cccc(CNC23CC4CC(CC(C4)C2)C3)c1"
Reply text: 31 to 95%

Inquiry: Another: Cc1ccc(-c2ccc(CNC34CC5CC(CC(C5)C3)C4)s2)s1 [Example 141a]
Reply text: 0 to 30%

Inquiry: Another: c1nc(CNC23CC4CC(CC(C4)C2)C3)no1 [Example 73a]
Reply text: 31 to 95%

Inquiry: Another: Fc1ccc(-c2nc(CNC34CC5CC(CC(C5)C3)C4)no2)cc1 [Example 163a]
Reply text: 0 to 30%

Inquiry: Another: COc1ccc(-c2cc(CNC34CC5CC(CC(C5)C3)C4)on2)cc1 [Example 122a]
Reply text: 0 to 30%

Inquiry: Another: COc1ccc2cc(CNC34CC5CC(CC(C5)C3)C4)[nH]c2c1 [Example 186a]
Reply text: 0 to 30%

Inquiry: Another: c1csc(-c2ncc(CNC34CC5CC(CC(C5)C3)C4)cn2)c1 [Example 61a]
Reply text: 0 to 30%
